- System: DU-145 prostate
- experiment_description: NCI-60 one-dose screen, 48 h (100 = growth as untreated, 0 = no growth, -100 = all killed)
- condition_details: 10 µM unless noted
About 83,000 compounds went through this panel and 20% of them were active in at least one assay; those are over-represented in the sample as a whole.
I'd appreciate it if you could supply growth values for the items below.
Numbers only, in %.

Sample answers from the record:
INSERT INTO assay_data (molecule, observation_type, unit_symbol, obs_value) VALUES
  ('CCOCCc1c(O)nc(SC)[nH]c1=O', 'growth', '%', 107),
  ('C=CCn1c(SCC(=O)Nc2ccc(C(=O)/C=C/c3cc(OC)c(OC)c(OC)c3)cc2)nnc1-c1ccccc1', 'growth', '%', 76.7),
  ('Cc1c(Br)cccc1NC(=O)c1sc2nc3c(cc2c1N)CN(Cc1ccccc1)CC3', 'growth', '%', 17.8),
  ('Cc1cc2ccccc2c[n+]1CC(=O)c1ccc(-c2ccccc2)cc1', 'growth', '%', 65.8),
  ('CC1CCCN(CCCCCOc2ccc3oc4ccc(Cl)cc4c(=O)c3c2)C1 (stereo not given)', 'growth', '%', 84.7),
  ('Cc1cccc(C)c1NC(=O)CN(CC(C)C)CC(O)COc1ccccc1 (stereo not given)', 'growth', '%', 111),
  ('C1=CC2=CC=C3C=CC=C4C(c5nc6c7ccccc7c7ccccc7c6[nH]5)=CC(=C1)C2C34 (stereo not given)', 'growth', '%', 105),
  ('CCCCCOC(=O)c1ccccc1O', 'growth', '%', 107),
  ('CN(C)CCCn1c2c(c3cc(-c4ccco4)ccc3c1=O)C(=O)c1ccccc1-2', 'growth', '%', 66.8);

The record that follows has no growth shown yet.
For record CC(=O)[C@@H]1CC[C@]2(C(=O)O)CC[C@]3(C)[C@H](CC[C@@H]4[C@@]5(C)Cc6c([nH]c7ccccc67)C(C)(C)[C@@H]5CC[C@]43C)[C@@H]12 the listed growth is 59.4

###

- System: MOLT-4 leukemia
- experiment_description: NCI-60 one-dose screen, 48 h (100 = growth as untreated, 0 = no growth, -100 = all killed)
- condition_details: 10 µM unless noted
The panel holds about 83,000 compounds, 20% with a hit somewhere; the sample as a whole holds those more often. Activity calls are given as the source filed them. How the source made its calls: active means growth percent below 10; inactive means the rest.
I'd appreciate it if you could supply growth values for the items below.

Sample answers from the record:
INSERT INTO measurements (compound, obs_value) VALUES
  ('C=C1C(=O)O[C@H]2[C@H]1CC/C(COC(=O)c1cn(C)c3ccccc13)=C\CC[C@@]1(C)O[C@@H]21', '-0.986% (active)'),
  ('COc1cccc2c1-c1ccccc1C2=O', '73.9% (inactive)'),
  ('C/C(=N/Nc1nc2ccccc2n1C)c1ccccn1', '1.82% (active)'),
  ('O=C1CC(c2ccc(O)c(O)c2)Oc2cc(O)c([C@@H]3O[C@H](CO)[C@@H](O)[C@H](O)[C@H]3O)c(O)c21 (stereo not given in full)', '100% (inactive)'),
  ('COc1ccc(-c2cn(-c3ccc(Cl)cc3)c(=S)[nH]2)cc1OC', '77.8% (inactive)'),
  ('CNCc1cccc2c1OCCOCCOCCN(CCN1CCOCC1)S(=O)(=O)c1ccc(cc1)-c1cnc(N)c(n1)C(=O)N2', '-1.99% (active)');

Hi team, please reply with growth for each item in this list.
1. O=c1c2ccccc2n(CC(O)CN2CCCC2)c2c(Br)cccc12 (stereo not given)
2. Sc1cccc2cccnc12

[reply]
1: 104% (inactive); 2: 22.2% (inactive)
